OUTCOME MEASURE: melting point

Solved entries (count: 2):
Cc1cc(O)c(S(=O)Cc2ccc(F)cc2)c(=O)o1 (stereo not given) | 127 to 128 °C
ClCCCCc1nnnn1C1CCCCC1 | 50 to 51 °C

query: State the recorded melting point for this entry: CC(C)N(CCC(CCN1CCCC1)(C(N)=O)c1ccccc1)C(C)C (stereo not given)
result: 79 to 80 °C

query: Fill in: melting point of C=C(C(=O)c1ccc(C(=O)O)cc1)c1cc(OC)c(OC)c(-c2cccs2)c1 is ___
result: 156 to 157 °C

query: GET /values?readout=melting point&item= Cc1oc(-c2ccccc2)nc1CCc1nc(COc2ccccc2CC(=O)O)cs1
result: 152 to 153 °C

* * *

OUTCOME MEASURE: melting point

Past entries and their recorded results:
COc1cc(Cl)cc(Cl)c1C1=NC(C)(C)CO1 | 45 °C
Cc1nc(Oc2ccccc2)c2nc(C)n(CCNC(=O)OC(C)(C)C)c2c1C | 180 to 182 °C
CNC(=O)c1ccc2[nH]cc(C3=CCN(C)CC3)c2c1 | 125 to 135 °C
CN1CCC(Oc2ccc([N+](=O)[O-])cc2)(c2ccccc2)CC1 | 136 to 138 °C
CC(C)Nc1ncc2ccc(=O)n(C)c2n1 | 148 to 149 °C
O=C1CC(NC(=O)c2cccnc2)CCCN1 (stereo unspecified) | 220 to 221 °C

query: Quick check: melting point of COc1ccc(C(=O)Nc2c(Cl)cncc2Cl)c2c1oc1ccc(Br)cc12 ?
result: 308 °C

query: Could you share which melting point value was measured for CC1(C)C=C(NC=NC#N)c2cc(C#N)ccc2O1 ?
result: 159 to 161 °C

query: Data request, read-out melting point, for Cc1ccc(C2Sc3ccccc3NC(=O)C2COS(C)(=O)=O)cc1 (stereo unspecified)
result: 207 °C

query: State the recorded melting point for this entry: COc1cc(F)ccc1-c1ccc(S(=O)(=O)N2c3ccccc3CC2C(=O)NCc2ccccc2NCCC(=O)O)cc1 (stereo unspecified)
result: 121 to 125 °C

query: melting point lookup needed for CCOC(=O)c1cc(C)n(-c2cccc(Br)c2)c1-c1ccccc1 , thanks.
result: 118 to 119 °C

query: Report melting point for CCC1(CC)C(=O)N(C(C)(C)C)CC(C)(C)N1OC(=O)Nc1ccccc1 please.
result: 160 to 163 °C

query: Which value of melting point has been reported for CC1(C)CN=C(Cc2ccc(Cl)cc2)NC1 in the records?
result: 130 to 132 °C

query: # input molecule: Cc1ccc(OCCCN2CCC(Cc3ccc4ccccc4n3)CC2)c2c1NC(=O)C2(C)C ; wanted: its melting point
result: 150 to 151 °C

* * *

Catalogue of melting point values

Answered cases to consult:
CSc1ccc(C(=O)c2c(C)c(C(=O)O)c3n2CCC3C(=O)O)n1C (stereo not given) | 212 to 213 °C
Cc1cc(Br)cnc1NCCCNC1=NS(=O)N=C1NCc1ccc(F)cc1 (stereo not given) | 125 to 126 °C

query: Fill in: melting point of COc1ccc(-c2cccc(-c3ccc(OC)c(F)c3)n2)cc1F is ___
result: 108 °C

query: Quick one: melting point of CN(CC1CCCCN1CC(=O)N1c2ccccc2NC(=O)c2ccccc21)C1CCCCC1 (stereo not given) ?
result: 146 to 148 °C

query: Which melting point value is on record for COc1cn(C(C)c2ccccc2)c(=O)o1 (stereo not given) ?
result: 49 to 52 °C

query: Reported melting point for CCCCCOc1cc(C=Cc2nc3c(s2)NCCCC3)ccc1OC : what is it?
result: 124 to 125 °C

query: Quick check: melting point of COC(C)=C(Cl)C(=O)Nc1ccccc1 ?
result: 100 °C

query: # get_value(readout='melting point', item= CSc1ccc(C2=C(c3ccc(CO)cc3)CCC2)cc1 )
result: 82 to 85 °C

query: Param item = CCCc1nc2c(N)nc3ccccc3c2n1CCC(=O)N1CCOCC1 ; retrieve measured melting point.
result: 172 to 173 °C

query: Please look up its melting point: O=CN1CCN(c2cc3c(cc2F)c(=O)c(C(=O)O)c2sccn23)CC1
result: 335 to 336 °C

* * *

OUTCOME MEASURE: melting point

Use these answered entries as a reference point.
CCCc1c(OCCCCCOc2ccc3c(c2CCC)OC(C(=O)O)CC3)ccc(C(C)=O)c1O (stereo not given) | 66 to 68 °C
CNCc1cn(S(=O)(=O)c2cccnc2)c(-c2ccccc2)c1F | 98 to 99 °C
Cc1cnc(NS(C)(=O)=O)cc1C(c1cc(F)ccc1F)S(=O)(=O)c1ccc(Cl)cc1 (stereo not given) | 214 to 217 °C
Nc1nc(F)cc(OC(F)(F)F)n1 | 86 to 89 °C

# context switch: different compound, same melting point
query: Reported melting point for Brc1ccc(N2CCN(Cc3ccccc3)CC2)nc1 : what is it?
result: 100 °C

* * *

Measured melting point, listed per entry.

Consider the worked cases shown below.
O=C1CCCCCCCCCCCCCCCCC1O (stereo unspecified) | 31 to 32 °C
Sc1ccc(-n2cnnn2)cc1 | 120 to 122 °C
CC(=O)c1ccc2c3c1ccn3C(=O)CNC2 | 285 to 287 °C
CC(C)C[C@H](NC(=O)Nc1cccc2ccccc12)C(=O)NC1CCOC1O (stereo partly specified) | 177 to 178 °C
Cn1c(=O)c2c(N)nc(N)nc2n(C)c1=O | > 300 °C

query: So what's the measured melting point for this one? CC(C)(C)OC(=O)NC(Cc1ccccc1)C(O)CNCC(O)C(CCc1ccccc1)NC(=O)OCc1ccccc1 (stereo unspecified)
result: 150 to 151 °C

query: Value lookup for melting point; key = Nc1nc2ccccc2n(-c2ccc(Cl)cc2)c1=O
result: 254 to 255 °C

query: What value of melting point has been recorded for this entry: NC(=O)N(CC(=O)OCCCCCCOC(=O)CN(C(N)=O)c1ccccc1)c1ccccc1
result: 131 to 140 °C

query: What value of melting point has been reported for the following molecule? CCOC(=O)c1c(S(=O)(=O)c2ccccc2)cc(C(F)(F)F)nc1C(F)(F)F
result: 48 to 50 °C

query: Endpoint output: melting point of CC(C)(C)OC(=O)N[C@H](CNc1ccccc1N)C(=O)O . Value?
result: 158 to 160 °C

query: // melting point lookup, key: OCc1ccc2cc(Cl)ccc2c1
result: 134 to 137 °C

* * *

Recorded measurements of melting point, one per entry

Please review the following examples before continuing.
COc1ccc(C#N)c(C=C(C)N(C)C)n1 | 103 to 104 °C
COc1ccc(CN2C(=O)CN(Cc3ccc4c(OC)ccnc4c3)S2(=O)=O)c(OC)c1 | 128 to 132 °C
COC(=O)c1cc(N2CCNC2=O)c2cc(Cc3ccc(F)cc3)cnc2c1O | 248 to 250 °C
Nc1nc(OC2CCCC2)c2ncn([C@@H]3C[C@H](CO)[C@@H](O)C3)c2n1 | 181 to 182 °C

Continue with the molecule presented below.
query: Given the molecule CC(C)[C@H](NC(=O)CN1CCN(CC(=O)O)C1=O)C(=O)N1CCC[C@H]1C(=O)N[C@H](C(=O)C(F)(F)F)C(C)C , what is its reported melting point?
result: 177 to 178 °C

* * *

A collection of compounds and their measured melting point

Past entries and their recorded results:
CC1=C(C(=O)OCCN(C)Cc2ccccc2)C(c2cccc([N+](=O)[O-])c2)C(P(=O)(OC(C)C)OC(C)C)=C(C)N1 (stereo not drawn) | 113 to 115 °C
Cc1ccc2c(c1)c1cc(-c3ccc(Cl)cc3Cl)c(=O)n(C)c1n2CC#N | 270 °C
CC(C)C(NC(=O)OC(C)(C)C)C(=O)NC(C(=O)OC1CC(n2cc(C=CBr)c(=O)[nH]c2=O)OC1CCl)C(C)C (stereo not drawn) | 114 to 116 °C

query: Looking for the measured melting point of CCCCc1[nH]c(CC)nc(=O)c1Cc1ccc(-c2ccccc2C(=O)O)cc1 , can you help?
result: 207 °C

query: Sample O=C(O)Cc1nn(Cc2ccc(Br)cc2)c(=O)c2ccccc12 — what was its melting point?
result: 179 to 181 °C

query: Field request: melting point | item: CCc1cc2c(c(Sc3ccccc3)cc(=O)n2Cc2ccc(-c3ccccc3-c3nnn(C(c4ccccc4)(c4ccccc4)c4ccccc4)n3)cc2)c(CC)n1
result: 156 to 158 °C

query: Using the record for CCOC(=O)N1CCOC(CNC(=O)c2cc(Cl)c(N)cc2OC)C1 (stereo not drawn) , report its melting point.
result: 140 to 151 °C

query: Given the compound Cc1ccccc1Sc1cccc(C=O)c1O , what is its reported melting point?
result: 42 to 43 °C

* * *

Parameter: melting point. Scope: all listed entries.

Example entries begin here.
CCOC(=O)c1c2n(c3c(Br)c(N4CCN(C)CC4)c(F)cc3c1=O)C(C)S2 (stereo not given) | 189 to 190 °C
COc1ncnc(-c2cc([N+](=O)[O-])c(F)cc2F)c1C | 114 to 117 °C
N#Cc1cc(Cc2cccc(Cl)c2)ccc1N | 84.5 to 85.5 °C

query: For the compound shown here, CCCOc1ccccc1C(=O)CCC(=O)O , give the reported melting point.
result: 77 to 79 °C

query: Returns the measured melting point for the input compound. Input: CC1(OC(=O)C#CC2C(C(=O)OC(C#N)c3cccc(Oc4ccccc4)c3)C2(C)C)CCC1 (stereo not given)
result: 76 °C
